Target: D(1A) dopamine receptor (Sus scrofa, UniProt P50130)
Sequence (P50130 whole entry): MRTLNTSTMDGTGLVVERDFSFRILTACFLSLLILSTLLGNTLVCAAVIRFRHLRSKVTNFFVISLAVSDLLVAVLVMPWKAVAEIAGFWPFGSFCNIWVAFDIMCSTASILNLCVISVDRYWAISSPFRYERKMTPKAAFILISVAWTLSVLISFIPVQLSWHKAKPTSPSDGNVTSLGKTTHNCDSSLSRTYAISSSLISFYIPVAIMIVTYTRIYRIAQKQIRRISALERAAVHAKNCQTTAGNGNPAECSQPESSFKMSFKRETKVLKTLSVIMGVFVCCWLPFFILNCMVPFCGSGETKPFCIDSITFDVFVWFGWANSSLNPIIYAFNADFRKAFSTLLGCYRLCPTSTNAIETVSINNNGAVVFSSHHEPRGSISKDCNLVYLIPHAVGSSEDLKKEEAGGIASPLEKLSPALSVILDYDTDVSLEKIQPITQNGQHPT
Assay: Binding affinity towards Dopamine receptor D1 using porcine striatal membrane and [3H]-SCH- 23390 as radioligand
true if Ki is below 1 µM. false if not; exact matches included in false.

The following molecules have reported results that may help.
| entrySmiles | testedTarget | assignedCategory |
| --- | --- | --- |
| O=C(NCCCCN1CCN(c2cccc(Cl)c2Cl)CC1)c1cccc(F)n1 | D(1A) dopamine receptor (Sus scrofa, UniProt P50130) | true |
| COc1ccccc1N1CCN(CCCCNC(=O)c2cccc(F)n2)CC1 | D(1A) dopamine receptor (Sus scrofa, UniProt P50130) | false |

Shifting focus to the molecule that follows.
Lab note: Ki threshold 1 µM. Does this molecule come in strictly under it? COc1ccccc1N1CCN(CCCCNC(=O)c2ccc(F)nc2)CC1
false

* * *

Biological target: UniProt P35462
Sequence (P35462 whole entry): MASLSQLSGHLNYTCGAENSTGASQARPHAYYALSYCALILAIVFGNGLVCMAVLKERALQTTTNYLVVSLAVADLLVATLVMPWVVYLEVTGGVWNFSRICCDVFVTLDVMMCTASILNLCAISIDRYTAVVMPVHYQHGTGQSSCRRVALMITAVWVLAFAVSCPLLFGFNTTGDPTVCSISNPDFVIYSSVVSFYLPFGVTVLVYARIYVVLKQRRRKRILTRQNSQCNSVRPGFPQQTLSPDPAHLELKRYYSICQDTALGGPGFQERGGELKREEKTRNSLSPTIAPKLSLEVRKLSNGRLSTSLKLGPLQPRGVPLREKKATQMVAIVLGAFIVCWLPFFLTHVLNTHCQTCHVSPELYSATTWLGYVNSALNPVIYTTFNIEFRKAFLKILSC
observedProperty: Ki (nM)
Numbers only, in nM.

| entrySmiles | unitLabel | recordedMeasurement |
| --- | --- | --- |
| O=C(NCCCCN1CCN(c2cccc(Cl)c2Cl)CC1)c1ccc(F)nc1 | nM | 1.1 |
| O=S(=O)(NCCCCN1CCN(c2cccc(Cl)c2Cl)CC1)c1ccc(F)cc1 | nM | 16 |
| COc1ccccc1N1CCN(CCCCNC(=O)c2cccc(F)n2)CC1 | nM | 86 |

Need Ki, item O=C(NCCCCN1CCN(c2cccc(Cl)c2Cl)CC1)c1cccc(F)n1
9

* * *

Assay: Binding affinity towards 5-HT2 receptor using porcine cortical membrane and [3H]ketanserin as radioligand
Design: species or system Sus scrofa
observedProperty: Ki (µM)
Numbers only, in µM.

These recorded examples may help you get a feel for the data.
| entrySmiles | Ki (µM) |
| --- | --- |
| COc1ccccc1N1CCN(CCCCNC(=O)c2ccc(F)cc2)CC1 | 2.3 |
| O=C(NCCCCN1CCN(c2cccc(Cl)c2Cl)CC1)c1ccc(F)cc1 | 0.23 |
| COc1ccccc1N1CCN(CCCCNC(=O)c2ccc(F)nc2)CC1 | 3.7 |
| O=C(NCCCCN1CCN(c2cccc(Cl)c2Cl)CC1)c1cc2ccccc2s1 | 3 |
| COc1ccccc1N1CCN(CCCCNC(=O)c2cccc(F)n2)CC1 | 3.2 |
| O=C(NCCCCN1CCN(c2cccc(Cl)c2Cl)CC1)c1cccc(F)n1 | 0.24 |

Hi, could you look up Ki for each item in my list?
1. O=S(=O)(NCCCCN1CCN(c2cccc(Cl)c2Cl)CC1)c1ccc(F)cc1
2. O=C(NCCCCN1CCN(c2cccc(Cl)c2Cl)CC1)c1ccc(F)nc1

[0.83, 0.084]

* * *

Record form. Attribute: Ki. Fill in for each entry.
Target: D(2) dopamine receptor (Homo sapiens, UniProt P14416)
Sequence (P14416 whole entry): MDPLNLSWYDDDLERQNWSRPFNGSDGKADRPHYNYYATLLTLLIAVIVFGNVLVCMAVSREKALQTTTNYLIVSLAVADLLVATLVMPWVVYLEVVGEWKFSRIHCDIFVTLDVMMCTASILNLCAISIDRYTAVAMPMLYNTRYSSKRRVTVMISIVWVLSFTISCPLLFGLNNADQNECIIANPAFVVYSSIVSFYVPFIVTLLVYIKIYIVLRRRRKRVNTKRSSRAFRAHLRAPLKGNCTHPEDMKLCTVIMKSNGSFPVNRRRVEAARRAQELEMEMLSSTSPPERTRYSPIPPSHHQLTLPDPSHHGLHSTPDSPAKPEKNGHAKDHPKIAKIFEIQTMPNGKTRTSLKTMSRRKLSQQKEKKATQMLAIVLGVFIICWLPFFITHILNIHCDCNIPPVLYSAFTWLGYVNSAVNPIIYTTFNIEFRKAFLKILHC
Assay: biochemical
Description: Binding affinity towards Dopamine D2S receptor using CHO cell line and [3H]spiperone as radioligand
One number for each entry, in µM.

| entrySmiles | Ki, µM |
| --- | --- |
| O=C(NCCCCN1CCN(c2cccc(Cl)c2Cl)CC1)c1ccc(F)nc1 | 0.029 |
| COc1ccccc1N1CCN(CCCCNC(=O)c2ccc(F)nc2)CC1 | 0.24 |

Hi, could you look up Ki for each item in my list?
1. O=S(=O)(NCCCCN1CCN(c2cccc(Cl)c2Cl)CC1)c1ccc(F)cc1
2. O=C(NCCCCN1CCN(c2cccc(Cl)c2Cl)CC1)c1ccc(F)cc1
3. O=C(NCCCCN1CCN(c2cccc(Cl)c2Cl)CC1)c1cccc(F)n1
4. COc1ccccc1N1CCN(CCCCNC(=O)c2cccc(F)n2)CC1
5. COc1ccccc1N1CCN(CCCCNS(=O)(=O)c2ccc(F)cc2)CC1

0.049
0.018
0.057
0.4
0.12

* * *

Target: D(2) dopamine receptor (Homo sapiens, UniProt P14416)
Assay: biochemical
Description: Binding affinity towards Dopamine D2L receptor using CHO cell line and [3H]spiperone as radioligand
observedProperty: pKi
Give bare numbers, as −log10 of the molar value.

Hi, could you look up pKi for each item in my list?
1. COc1ccccc1N1CCN(CCCCNC(=O)c2ccc(F)nc2)CC1
2. O=C(NCCCCN1CCN(c2cccc(Cl)c2Cl)CC1)c1cccc(F)n1
3. O=S(=O)(NCCCCN1CCN(c2cccc(Cl)c2Cl)CC1)c1ccc(F)cc1
4. O=C(NCCCCN1CCN(c2cccc(Cl)c2Cl)CC1)c1ccc(F)nc1
5. COc1ccccc1N1CCN(CCCCNC(=O)c2cccc(F)n2)CC1
6. COc1ccccc1N1CCN(CCCCNS(=O)(=O)c2ccc(F)cc2)CC1

1. 6.80
2. 7.36
3. 7.41
4. 7.68
5. 6.59
6. 7.14

* * *

Target: D(1A) dopamine receptor (Sus scrofa)
Assay: Binding affinity towards Dopamine receptor D1 using porcine striatal membrane and [3H]-SCH- 23390 as radioligand
observedProperty: pKi
Numbers only, as −log10 of the molar value.

These recorded examples may help you get a feel for the data.
| entrySmiles | recordedMeasurement |
| --- | --- |
| O=C(NCCCCN1CCN(c2cccc(Cl)c2Cl)CC1)c1ccc(F)cc1 | 6.04 |
| O=S(=O)(NCCCCN1CCN(c2cccc(Cl)c2Cl)CC1)c1ccc(F)cc1 | 5.74 |
| O=C(NCCCCN1CCN(c2cccc(Cl)c2Cl)CC1)c1ccc(F)nc1 | 5.89 |

Need pKi, item COc1ccccc1N1CCN(CCCCNS(=O)(=O)c2ccc(F)cc2)CC1
5.46
